- subject.of.test: HDAC2 Human recombinant C-terminal FLAG-tag (Homo sapiens, UniProt Q92769)
- Construct: FLAG (C); purchased BPS Bioscience 50052
- Sequence (Q92769 whole entry): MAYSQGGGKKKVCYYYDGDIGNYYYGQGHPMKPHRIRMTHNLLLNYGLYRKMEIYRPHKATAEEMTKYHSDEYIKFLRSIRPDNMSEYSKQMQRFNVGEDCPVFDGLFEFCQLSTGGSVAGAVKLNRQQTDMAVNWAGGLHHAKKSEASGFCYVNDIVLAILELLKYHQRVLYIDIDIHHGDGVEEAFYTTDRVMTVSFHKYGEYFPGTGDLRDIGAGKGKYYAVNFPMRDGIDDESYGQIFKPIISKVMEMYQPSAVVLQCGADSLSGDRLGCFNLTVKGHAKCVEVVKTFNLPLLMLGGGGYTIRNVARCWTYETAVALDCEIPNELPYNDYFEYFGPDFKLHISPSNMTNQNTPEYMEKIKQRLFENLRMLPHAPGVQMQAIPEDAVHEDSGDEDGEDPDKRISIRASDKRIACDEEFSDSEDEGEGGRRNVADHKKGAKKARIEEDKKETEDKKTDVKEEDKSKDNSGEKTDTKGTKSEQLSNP
- procedure.summary: Measurement of HDAC2 enzyme inhibitory activity (HTRF)
- Type: biochemical
- settings: recombinant HDAC2, H3K9ac peptide, 3 hours room temperature; read-out: HDAC2 IC50
measured.endpoint: IC50 (µM)

A: Cn1cc(-c2ccc(N)c(NC(=O)c3cnc(NCC(F)(F)F)cn3)c2)cn1
B: Cn1cc(-c2ccc(N)c(NC(=O)c3cnc(N4CCCOCC4)cn3)c2)cn1
C: CN(Cc1ccccn1)c1cnc(C(=O)Nc2cc(-c3ccc(F)nc3)ccc2N)cn1
Query: Sort the items above on IC50, descending. Respond with the label ranking, as requested.
Result: A, B, C

From: patent US20230119479A1
